tested on: Trichomonas vaginalis; assay: Inhibition of Trichomonas vaginalis uridine nucleoside ribohydrolase using 5-fluorouridine as substrate at 0.04 to 200 uM after 40 mins by NMR spectrometric analysis
Activity calls are given as the source filed them. The rule behind the calls is not given here.
ASSAY_METRIC: Active/inactive screening call

[
  {
    "COMPOUND": "O=C1C(CC[S+]([O-])c2ccccc2)C(=O)N(c2ccccc2)N1c1ccccc1 (stereo unspecified)",
    "OBSERVED_VALUE": "Active"
  },
  {
    "COMPOUND": "CN(C)[C@@H]1C(O)=C(C(N)=O)C(=O)[C@@]2(O)C(O)=C3C(=O)c4c(O)cccc4[C@@](C)(O)[C@H]3[C@H](O)[C@@H]12",
    "OBSERVED_VALUE": "Active"
  },
  {
    "COMPOUND": "CN(C)CCCN1c2ccccc2CCc2ccc(Cl)cc21",
    "OBSERVED_VALUE": "Active"
  },
  {
    "COMPOUND": "CC1=C(/C=C/C(C)=C/C=C/C(C)=C/C(=O)O)C(C)(C)CCC1",
    "OBSERVED_VALUE": "Active"
  },
  {
    "COMPOUND": "CC1=C(/C=C/C(C)=C/C=C/C(C)=C\\C(=O)O)C(C)(C)CCC1",
    "OBSERVED_VALUE": "Active"
  },
  {
    "COMPOUND": "CCC1=C[C@@H]2CN(C1)Cc1c([nH]c3ccccc13)[C@@](C(=O)OC)(c1cc3c(cc1OC)N(C)[C@H]1[C@@](O)(C(=O)OC)[C@H](OC(C)=O)[C@]4(CC)C=CCN5CC[C@]31[C@@H]54)C2",
    "OBSERVED_VALUE": "Active"
  },
  {
    "COMPOUND": "Oc1cc2c(cc1O)[C@H]1c3ccccc3CN[C@@H]1CC2 (relative stereo)",
    "OBSERVED_VALUE": "Active"
  },
  {
    "COMPOUND": "COC(=O)C1=C(C)NC(C)=C(C(=O)OCCN(C)Cc2ccccc2)C1c1cccc([N+](=O)[O-])c1 (stereo unspecified)",
    "OBSERVED_VALUE": "Active"
  },
  {
    "COMPOUND": "COc1ccc2[nH]c([S+]([O-])Cc3ncc(C)c(OC)c3C)nc2c1 (stereo unspecified) [OMEPRAZOLE]",
    "OBSERVED_VALUE": "Active"
  },
  {
    "COMPOUND": "Sc1ncnc2nc[nH]c12",
    "OBSERVED_VALUE": "Active"
  },
  {
    "COMPOUND": "N[C@@H](C(=O)N[C@@H]1C(=O)N2C(C(=O)O)=C(CSc3c[nH]nn3)CS[C@H]12)c1ccc(O)cc1",
    "OBSERVED_VALUE": "Active"
  },
  {
    "COMPOUND": "COCCCOc1ccnc(C[S+]([O-])c2nc3ccccc3[nH]2)c1C (stereo unspecified) [RABEPRAZOLE]",
    "OBSERVED_VALUE": "Active"
  },
  {
    "COMPOUND": "COC(=O)C1=C(C)NC(C)=C(C(=O)OCC(C)C)C1c1ccccc1[N+](=O)[O-] (stereo unspecified)",
    "OBSERVED_VALUE": "Active"
  },
  {
    "COMPOUND": "CCOC(=O)C1=C(C)NC(C)=C(C(=O)OC)C1c1cccc([N+](=O)[O-])c1 (stereo unspecified)",
    "OBSERVED_VALUE": "Active"
  },
  {
    "COMPOUND": "COc1ccnc(C[S+]([O-])c2nc3cc(OC(F)F)ccc3[nH]2)c1OC (stereo unspecified) [PANTOPRAZOLE SODIUM]",
    "OBSERVED_VALUE": "Active"
  },
  {
    "COMPOUND": "N[C@@H](C(=O)N[C@@H]1C(=O)N2C(C(=O)O)=C(Cl)CS[C@H]12)c1ccccc1",
    "OBSERVED_VALUE": "Active"
  }
]
